Values compiled from patent US12279618B2.

- System: soybean seeds
- protocol_details: Soybean seed germination experiment (seed soaking method)
- Type: in vivo
- recorded_conditions: soybean seeds, 0.02 ppm sample solution
recorded_metric: Germination rate % (%)
Answers are plain numbers, in %.

For orientation, consider the following solved cases.
C=Cc1c(C)c2cc3nc(c4c5[nH]c(cc6nc(cc1[nH]2)C(C)=C6CC)c(C)c5C(=O)OC4=O)[C@@H](CCC(=O)O)[C@@H]3C [Purpurin-18, purpurin-18] = 66
C=Cc1c(C)c2cc3nc(c(C)c4[nH]c(cc5nc(cc1[nH]2)C(C)=C5CC)c(C)c4C(=O)O)[C@@H](CCC(=O)O)[C@@H]3C [Chlorin e4, chlorin e4] = 67
C=Cc1c(C)c2cc3nc(c(CC(=O)O)c4[nH]c(cc5nc(cc1[nH]2)C(C)=C5CC)c(C)c4C(=O)O)[C@@H](CCC(=O)O)[C@@H]3C [Chlorin e6, chlorin e6] = 60

Entry C=Cc1c(C)c2cc3nc(c4c5[nH]c(cc6nc(cc1[nH]2)C(C)=C6CC)c(C)c5C(=O)C4)[C@@H](CCC(=O)O)[C@@H]3C [Pyropheophorbide, pyropheophorbide] needs its Germination rate % filled in; supply it.
61
